Item-by-item account of amyloid nucleation score
Test: amyloid nucleation score (Sup35N fusion, yeast selection) (log enrichment); library NNK1; higher = more nucleation; inactive = no reads after selection;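 note: zero at mode of non-aggregating sequences after 7 days selection at 30°C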
value-type: amyloid nucleation score

[
  {
    "substance": "NFFFRMNIN",
    "value-type": "amyloid nucleation score",
    "reported-measurement": 2.18
  },
  {
    "substance": "FFVVMVIDNKHPQQENSRIR",
    "value-type": "amyloid nucleation score",
    "reported-measurement": 1.74
  },
  {
    "substance": "LKYPMGFPDRSL",
    "value-type": "amyloid nucleation score",
    "reported-measurement": -0.658
  },
  {
    "substance": "AWLSGVNVVSKSQGCFLWYG",
    "value-type": "amyloid nucleation score",
    "reported-measurement": 0.551
  },
  {
    "substance": "KGWLKTGVYGHVSFVGNIME",
    "value-type": "amyloid nucleation score",
    "reported-measurement": 0.467
  },
  {
    "substance": "VCYRGECVDSDLLYLSCP",
    "value-type": "amyloid nucleation score",
    "reported-measurement": -0.389
  },
  {
    "substance": "LYYRKLVCWESGMA",
    "value-type": "amyloid nucleation score",
    "reported-measurement": 0.318
  },
  {
    "substance": "KSLVNNCDSVIAL",
    "value-type": "amyloid nucleation score",
    "reported-measurement": 0.506
  },
  {
    "substance": "TAKSFFRVHFSHWTRHSPSR",
    "value-type": "amyloid nucleation score",
    "reported-measurement": 4.16
  },
  {
    "substance": "FNIHCVSSA",
    "value-type": "amyloid nucleation score",
    "reported-measurement": -0.015
  },
  {
    "substance": "KNCPALRSFSSKDSSSFVWS",
    "value-type": "amyloid nucleation score",
    "reported-measurement": -0.23
  },
  {
    "substance": "TVCYTGEVRMLRS",
    "value-type": "amyloid nucleation score",
    "reported-measurement": 4.22
  },
  {
    "substance": "SLSFTEVGRNRLSWRSAHSK",
    "value-type": "amyloid nucleation score",
    "reported-measurement": -0.616
  },
  {
    "substance": "GQAWKDAVQNYDMLAYMLKG",
    "value-type": "amyloid nucleation score",
    "reported-measurement": -0.375
  },
  {
    "substance": "ICVMSPGMESCGLVFGAWYT",
    "value-type": "amyloid nucleation score",
    "reported-measurement": 0.61
  },
  {
    "substance": "YCEYASVVLFGTELCFAWVY",
    "value-type": "amyloid nucleation score",
    "reported-measurement": 0.001
  }
]
